Exercise: state measured pIC50 for each of the molecules provided.
- studySystem: PIK3CA (human) (UniProt P42336)
- Sequence (P42336 whole entry, looked up): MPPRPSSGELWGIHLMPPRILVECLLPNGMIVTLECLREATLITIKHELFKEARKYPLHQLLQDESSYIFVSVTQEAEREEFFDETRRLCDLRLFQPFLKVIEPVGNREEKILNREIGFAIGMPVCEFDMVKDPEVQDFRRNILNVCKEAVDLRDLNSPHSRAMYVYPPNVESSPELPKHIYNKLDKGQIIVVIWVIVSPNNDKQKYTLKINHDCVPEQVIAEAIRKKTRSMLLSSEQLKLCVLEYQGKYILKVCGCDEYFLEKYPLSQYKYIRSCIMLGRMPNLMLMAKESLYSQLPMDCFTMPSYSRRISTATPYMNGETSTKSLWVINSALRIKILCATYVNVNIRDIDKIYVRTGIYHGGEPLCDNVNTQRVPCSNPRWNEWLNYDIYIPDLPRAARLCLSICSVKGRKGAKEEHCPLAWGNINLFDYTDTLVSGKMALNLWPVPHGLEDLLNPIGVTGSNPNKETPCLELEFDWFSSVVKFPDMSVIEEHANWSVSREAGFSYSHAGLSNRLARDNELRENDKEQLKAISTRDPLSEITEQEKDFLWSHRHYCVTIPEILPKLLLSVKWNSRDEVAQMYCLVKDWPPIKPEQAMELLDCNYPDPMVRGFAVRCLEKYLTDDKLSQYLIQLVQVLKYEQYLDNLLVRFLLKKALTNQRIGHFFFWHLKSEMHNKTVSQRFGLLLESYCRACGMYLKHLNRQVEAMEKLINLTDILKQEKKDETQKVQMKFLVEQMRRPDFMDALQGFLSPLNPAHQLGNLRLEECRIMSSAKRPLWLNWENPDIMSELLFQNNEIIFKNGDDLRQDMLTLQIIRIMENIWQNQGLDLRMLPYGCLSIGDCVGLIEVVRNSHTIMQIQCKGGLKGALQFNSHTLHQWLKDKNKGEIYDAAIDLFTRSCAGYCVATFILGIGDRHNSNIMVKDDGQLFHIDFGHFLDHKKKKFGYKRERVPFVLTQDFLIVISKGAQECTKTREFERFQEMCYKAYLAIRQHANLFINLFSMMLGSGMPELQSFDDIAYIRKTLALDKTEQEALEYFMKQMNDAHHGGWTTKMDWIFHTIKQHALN
// scale note: pIC50 = -log10(conc_M); give the bare number

I'd like to know its pIC50. The molecule in question is O=C(Nc1ccncc1)Nc1ccc(-c2cc(N3CCOCC3)nc(N3CCOCC3)n2)cc1
7.80

Item: O=C(Nc1ccc(-c2ccnc(N3CCOCC3)n2)cc1)Nc1cccnc1
7.38

How about C[C@@H]1COCCN1c1cc(N2CCOC[C@H]2C)nc(-c2ccc(NC(=O)Nc3cccnc3)cc2)n1 ?
6.01

Could you do the same for CCNC(=O)Nc1ccc(-c2nccc(N3CCOCC3)n2)cc1 , please?
6.38

Same for C[C@@H]1COCCN1c1cc(C2CCOCC2)nc(-c2ccc(NC(=O)Nc3ccc(N4CCN(C)CC4)nc3)cc2)n1
6.16

C[C@@H]1COCCN1c1cc(N2CCOC[C@H]2C)nc(-c2ccc(NC(=O)Nc3ccc(C(=O)N4CCN(C)CC4)cc3)cc2)n1 ?
7.11

Also need Cc1ccc2c(N3CCOCC3)nc(-c3ccc(NC(=O)Nc4ccncc4)cc3)nc2c1 , thanks.
7.46

Could you do the same for CNC(=O)Nc1ccc(-c2nc(N3CCOCC3)c3sccc3n2)cc1 , please?
7.03

How about this molecule: CNC(=O)Nc1ccc(-c2nccc(N3CCOCC3)n2)cc1
6.42

###

- studySystem: PIK3CA (human)
pIC50: −log10 of the molar value.
Lab note: anything with pIC50 at or over 7 counts as class 1; the rest go in class 0.

Has C[C@@H]1COCCN1c1cc(C2CCOCC2)nc(-c2ccc(NC(=O)Nc3ccncc3)cc2)n1 a recorded pIC50 greater than or equal to 7?
class 0

One more compound: C=CCc1cnc(-c2ccc(NC(=O)Nc3cccnc3)cc2)nc1N1CCOCC1
class 1

And the next one, CN1CCN(c2ccc(NC(=O)Nc3ccc(-c4nccc(N5CCOCC5)n4)cc3)cc2)CC1 ?
class 1

Ok, now O=C(Nc1ccccc1)Nc1ccc(-c2nc(N3CCOCC3)c3sccc3n2)cc1
class 1

Follow-up entry: O=C(Nc1ccc(-c2ccnc(N3CCOCC3)n2)cc1)OCCO
class 0
